biological target: Max(L) homodimers (Homo sapiens); construct: full-length His6-tagged Max(S) and His6-tagged Max(L) were expressed and purified as previously described; His6; test: EMSA, DNA binding by Max(L) homodimers; settings: recombinant Max(L)
Sequence (P61244 whole entry): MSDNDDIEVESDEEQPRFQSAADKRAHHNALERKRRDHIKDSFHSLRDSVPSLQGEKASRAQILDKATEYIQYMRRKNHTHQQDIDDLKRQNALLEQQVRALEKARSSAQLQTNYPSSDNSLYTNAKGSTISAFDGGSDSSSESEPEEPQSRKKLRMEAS
OBSERVABLE: IC50

[Q] What value of IC50 has been recorded for this entry: CC1=C(O)C(=O)C=C2C1=CC=C1[C@@]2(C)CC[C@@]2(C)[C@@H]3C[C@](C)(C(=O)O)CC[C@]3(C)CC[C@]12C [Celastrol, celastrol, reference compound]
[A] > 140 µM

----------
tested on: human myeloma cell lines; assay: Myeloma cell line viability, Cell Titer Glo; type: cell-based; conditions: Homo sapiens; 8 of 9 cell lines; read-out: IC50 in 8 of 9 myeloma cell lines
OBSERVABLE: IC50

[Q] Record request: IC50 value, item C=C(C)C1CCC2(C(=O)O)CCC3(C)C(CCC4C5(C)Cc6nccnc6C(C)(C)C5CCC43C)C12 (stereo not shown)
[A] < 1000 nM
